// provenance: paper PMC9078123

Assay: Cytotoxic activity assay, Hela
Details: human, HeLa cervical cancer cells
pIC50: −log10 of the molar value.
Measured property: pIC50

| Smiles | Measured property | Numeric value |
| --- | --- | --- |
| COc1cccc2c1C(=O)c1c(O)c3c(c(O)c1C2=O)C[C@@](O)(C(=O)CO)C[C@@H]3O[C@H]1C[C@H](N)[C@H](O)[C@H](C)O1 | pIC50 | 5.85 |
